experimental_system: SOCS2 (Homo sapiens, UniProt O14508)
Construct: made in house; host or cells: HEK293 (transient transfection), unpurified extract
Sequence (O14508 whole entry): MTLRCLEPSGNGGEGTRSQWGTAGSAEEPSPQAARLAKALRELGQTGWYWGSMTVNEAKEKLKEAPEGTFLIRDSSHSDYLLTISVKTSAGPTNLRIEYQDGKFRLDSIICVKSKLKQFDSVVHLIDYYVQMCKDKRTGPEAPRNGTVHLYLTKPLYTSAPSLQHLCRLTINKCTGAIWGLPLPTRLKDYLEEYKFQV
experiment_description: biochemical
Format: binding
condition_label: read-out: percent of DMSO vehicle control
Non-standard residues stand in square brackets, D forms with d. Residues, ends and D or L forms follow the SMILES beside them. *: point of attachment. pY = N[C@@H](Cc1ccc(OP(=O)(O)O)cc1)C(=O)O; Caffeoyl = O=C(/C=C/c1ccc(O)c(O)c1)*
Reported remaining activity at 10 µM values are given for each entry in this list.
assay_readout: remaining activity at 10 µM (%)

>>> reading("CC(=O)N1CC[C@H]2CC[C@@H](C(=O)N[C@@H](CCC(N)=O)C(=O)NC(c3ccccc3)c3ccccc3)N2C(=O)[C@@H](NC(=O)c2cc3cc(C(F)(F)P(=O)(O)O)ccc3[nH]2)C1")
142
>>> reading("CC[C@H](C)[C@H](NC(=O)[C@H](CCC(=O)O)NC(=O)[C@H](CCC(=O)O)NC(=O)[C@H](Cc1ccc(OP(=O)(O)O)cc1)NC(=O)/C=C/c1ccc(O)c(O)c1)C(=O)N[C@@H](CCC(=O)O)C(=O)O [Caffeic acid-pYEEIE] (Caffeoyl-[pY]EEIE-OH)")
2.6
>>> reading("CC(=O)N[C@@H](Cc1ccc(CP(=O)(O)O)cc1)C(=O)NC1(C(=O)N[C@@H](CC(N)=O)C(=O)NCCCc2c(O)ccc3ccccc23)CCCCC1")
119
>>> reading("NC(=O)CC[C@H](NC(=O)[C@@H]1CC[C@@H]2CCN(C(=O)CCCCCC#Cc3cccc4c3CN(C3CCC(=O)NC3=O)C4=O)C[C@H](NC(=O)c3cc4cc(C(F)(F)P(=O)(O)O)ccc4[nH]3)C(=O)N21)C(=O)NC(c1ccccc1)c1ccccc1 (stereo partly shown)")
98.5
